test.description: Cytotoxicity in mock-infected MDBK cells (MTT)
assay.setup: cattle (Bos taurus), mock-infected
reported.endpoint: CC50 (µM)
Kindly answer with a numeric value in µM, unit omitted.

1. COc1ccc(C(=O)Nc2ccc(Cn3nnc4ccccc43)cc2)cc1 [86c]: 87

Now consider a different compound.
Which CC50 is listed for CC(=O)Nc1ccc(Cn2nnc3ccccc32)cc1 [79c] ?
44

---

test.description: Cytotoxicity in mock-infected Vero-76 monolayers
assay.setup: African green monkey (Cercopithecus aethiops), Vero-76 cell monolayers, mock-infected
reported.endpoint: CC50

1. Cc1cc2nn(Cc3ccc(N)cc3)nc2cc1C [11b]: > 100 µM

Which CC50 is listed for O=c1cnn([C@@H]2O[C@H](CO)[C@@H](O)[C@H]2O)c(=O)[nH]1 [6az-ur, 6-azauridine, reference compound] ?
9.3 µM

Which CC50 is listed for COc1cc(C(=O)Nc2ccc(Cn3nnc4c(F)cccc43)cc2)cc(OC)c1OC [21e] ?
> 100 µM

Which CC50 is listed for CC(=O)Nc1ccc(Cn2nnc3ccccc32)cc1 [79c] ?
72 µM
